Every entry's value here was drawn from patent US10815222B2.

Collected pEC50 values appear next to each entry.
# System: Bloodstream form of Trypanosoma brucei, strain Lister 427
# Protocol: Trypanosoma brucei growth inhibition assay (CellTiter-Glo, 24 h)
# Format: cell-based
# Condition Parameters: Trypanosoma brucei; T. Brucei Growth Inibition Assay, class symbols; read-out: T. Brucei GI EC50
pEC50: −log10 of the molar value.

Below, 3 compounds whose answers are already recorded.
COc1ccc(CC(=O)N2CCN(C)CC2c2ncc(-c3ccc4ccccc4c3)[nH]2)cc1 (centres unmarked) ... 5.30 to 6.00
COc1ccc2nc(C)n(CC(=O)N3CCOCC3c3ncc(-c4cc5ccccc5nc4OC)[nH]3)c2c1 (centres unmarked) ... 5.30 to 6.00
COc1ccc2nc(C)n(CC(=O)N3CCC(O)C[C@H]3c3ncc(-c4cc5ccccc5nc4OC)[nH]3)c2c1 (some centres unmarked) ... 6.00 to 6.29

# get_value(readout='pEC50', item= COc1ccc2nc(C(F)(F)F)n(CC(=O)N3CCN(Cc4cocn4)C[C@H]3c3ncc(-c4cc5ccccc5nc4OC)[nH]3)c2c1 )
> 7.00

Which pEC50 reading was recorded for the compound CN1CCN(C(=O)Cc2ccccc2)C(c2ncc(-c3ccc4ncccc4c3)[nH]2)C1 (centres unmarked) ?
5.30 to 6.00

Reported pEC50 for COc1ccc2nc(C(F)(F)F)n(CC(=O)N3CCN(CCn4cnnc4)C[C@H]3c3ncc(-c4cc5ccccc5nc4OC)[nH]3)c2c1 : what is it?
5.30 to 6.00

Given COc1nc2ccccc2cc1-c1cnc(C2CN(Cc3ccccc3)CCN2C(=O)CC2=C(C)NC3C=CC=CC23)[nH]1 (centres unmarked) , state its recorded pEC50.
6.30 to 7.00

Fill in the blank: the reported pEC50 of COc1ccc2nc(C)n(CC(=O)N3CCN(Cc4nccs4)CCC3c3ncc(-c4cc5ccccc5nc4OC)[nH]3)c2c1 (centres unmarked) is ____.
> 7.00

* * *

# Tested on: Bloodstream form of Trypanosoma brucei, strain Lister 427
# Protocol: Trypanosoma brucei growth inhibition assay (CellTiter-Glo, 24 h)
# Type: cell-based
# Condition Parameters: Trypanosoma brucei; T. Brucei Growth Inibition Assay, class symbols; read-out: T. Brucei GI EC50
# Experimental: […] After an incubation period of 24 hours at 37° C., each well is added 15 μl of CellTiter-Glo® Reagent (Promega) and incubated at room temperature. 5-10 min post incubation, the plate is read using a luminometer (ViewLux®). […]
pEC50: −log10 of the molar value.
Measured Quantity: pEC50

Provide the documented pEC50 with Bloodstream form of Trypanosoma brucei, strain Lister 427 as the system for COc1nc2ccccc2cc1-c1cnc(C2CN(Cc3ccoc3)CCN2C(=O)Cc2c(C)[nH]c3ccc(F)cc23)[nH]1 (stereo not drawn)
6.30 to 7.00

* * *

# System: Bloodstream form of Trypanosoma brucei, strain Lister 427
# Protocol: Trypanosoma brucei growth inhibition assay (CellTiter-Glo, 24 h)
# Type: cell-based
# Condition Parameters: Trypanosoma brucei; T. Brucei Growth Inibition Assay, class symbols; read-out: T. Brucei GI EC50
Reported EC50 values for a set of compounds

Consider the compound shown here: COc1nc2ccccc2cc1-c1cnc(C2CN(C(=O)C3CCOC3)CCN2C(=O)Cc2c(C)[nH]c3ccc(F)cc23)[nH]1 (stereo not drawn) What is its recorded EC50?
1010 to 5000 nM

Tell me the measured EC50 of COc1ccc2nc(C(F)(F)F)n(CC(=O)N3CC[C@H](N4CCOCC4)C[C@H]3c3ncc(-c4cc5ccccc5nc4OC)[nH]3)c2c1 , please.
< 100 nM

Please report the recorded EC50 for COc1nc2ccccc2cc1-c1cnc(C2CN(S(=O)(=O)N(C)C)CCN2C(=O)Cc2c(C)[nH]c3ccc(F)cc23)[nH]1 (stereo not drawn) .
1010 to 5000 nM

// EC50 lookup, key: CO[C@](C(=O)N1CCN(C)C[C@@H]1c1ncc(-c2ccc3ccccc3c2)[nH]1)(c1ccccc1)C(F)(F)F
1010 to 5000 nM

Given COc1nc2ccccc2cc1-c1cnc(C2CN(CC3CCOC3)CCN2C(=O)Cn2c(C)nc3cc(F)ccc32)[nH]1 (stereo not drawn) , state its recorded EC50.
100 to 500 nM

What value of EC50 has been recorded for this entry: COc1nc2ccccc2cc1-c1cnc(C2CNCCN2C(=O)Cc2ccccc2)[nH]1 (stereo not drawn)
1010 to 5000 nM

Form field: reported EC50 of CN1CCN(C(=O)Cc2ccncc2)C(c2ncc(-c3ccc4ccccc4c3)[nH]2)C1 (stereo not drawn)
1010 to 5000 nM

Entry COc1ccc2nc(C(F)(F)F)n(CC(=O)N3CCN(Cc4ncco4)CCC3c3ncc(-c4cc5ccccc5nc4OC)[nH]3)c2c1 (stereo not drawn) has what EC50?
< 100 nM

What measured EC50 goes with COc1ccc2nc(C(F)(F)F)n(CC(=O)N3CCN(C4CCOC4)CCC3c3ncc(-c4cc5ccccc5nc4OC)[nH]3)c2c1 (stereo not drawn) ?
< 100 nM
